Below is a list of entries, each paired with its recorded melting point value.

Example results:
>>> test_value("CC(C)(C)c1cc(C=Cc2cc(C=Cc3cc(C(C)(C)C)cc(C(C)(C)C)c3)cc(CO)c2)cc(C(C)(C)C)c1")
"226 to 228 °C"
>>> test_value("CCCCCCCCCCCCCCc1ccc(S(=O)(=O)Cl)cc1")
"32 to 33 °C"
>>> test_value("CCN(C(=S)Oc1ccc(C(C)C)cc1)c1cccc(OC)n1")
"53 to 54 °C"
>>> test_value("CC(O)=C(C#N)C(=O)Nc1cccc(S(C)(=O)=O)c1")
"213 to 214 °C"
>>> test_value("CC(C)COC(=O)c1ccc2nc(N)n(S(=O)(=O)N(C)C)c2c1")
"197 to 198 °C"
>>> test_value("Cc1cc(C(=O)Nc2nc(-c3ccoc3)c(C(=O)C3CCOCC3)s2)ccn1")
"202 to 204 °C"
>>> test_value("Cc1nc(N2CCCC(NCC3CC3)C2=O)sc1C(=O)NCc1ccccc1 (stereo unspecified)")
"125 to 126 °C"
>>> test_value("Cc1ccc(C)c(OCc2ccccc2C(Cl)Cl)c1")
"62 to 65 °C"
>>> test_value("COC(=O)[C@H](COCc1ccccc1)NC(=O)Nc1n[nH]c(=S)s1")
"84 to 86 °C"
>>> test_value("CN(C)C1(c2ccccc2)CCC(=CC(=O)NCCCc2ccccc2)CC1 (stereo unspecified)")
"140 to 142 °C"

Query: Which value of melting point has been reported for "C1=Nc2ccccc2N2CCCc3cccc1c32" in the records?
Response: 118 to 120 °C

Query: For "CCOC(=O)c1cc(OC)c(OCCOC)cc1[N+](=O)[O-]" then?
Response: 68 to 69 °C

Query: Now this one: "C[C@@H]1C(=O)C[C@H]2C[C@@H]1OO[C@@]2(C)/C=C\c1ccccc1"
Response: 60 °C

Query: What do you get for "O=Cc1cn(CCCCO)c2ncccc12" ?
Response: 90 °C

Query: # iterate: "O=Cc1cccn2c(Br)cnc12"
Response: 104 to 106 °C

Query: Please give the result for CC(=O)[NH+]([O-])C[C@@H]1CN(c2ccc(N3CCN(S(=O)(=O)CC#N)CC3)c(F)c2)C(=O)O1 (stereo partly specified) too.
Response: 153 to 156 °C

Query: Try "OCCn1c2ccccc2c2c(N3CCCC3)nc(N3CCCC3)nc21" next.
Response: 110 °C

Query: Another compound to check: "CCCCNC(=O)NS(=O)(=O)c1cscc1C"
Response: 126 to 131 °C

Query: // same read-out, input: O=C1CC2(CN1)CC(=O)c1cc(Cl)ccc12 (stereo unspecified)
Response: 220 to 222 °C

Query: Next: "Cc1oc(-c2ccccc2)nc1COc1ccc(COc2ncccc2CC(=O)O)cn1"
Response: 147 to 148 °C

====

Overview of reported melting point across a group of molecules:

>>> test_value("Fc1cc(CC2(Cc3ccncc3)c3ccccc3-c3sccc32)ccn1 (stereo unspecified)")
"117 to 119 °C"

Query: Would you mind telling me what melting point value was observed for "O=Cc1ccc(NC(=O)c2cc(F)cc(N3CCOCC3)c2)c2ccccc12" ?
Response: 204 to 205 °C

Query: Proceed to "CS(=O)(=O)Nc1ccc(C(O)(C(F)(F)F)C(F)(F)F)cc1"
Response: 137 to 139 °C

====

Measure: melting point

>>> test_value("CC(C)(C)C(=O)C(N)=O")
"69 to 70 °C"
>>> test_value("COc1ncnc(OC)c1C(C(C)C)N(C)C(=O)Cc1ccc(Cl)cc1 (stereo unspecified)")
"107 to 109 °C"
>>> test_value("COc1nc(Cc2ccccc2[N+](=O)[O-])nc(OC)n1")
"91.6 to 92.3 °C"
>>> test_value("CCCc1nc2c(N)nc3ccccc3c2n1CCCON=C(C)C")
"147 to 150 °C"
>>> test_value("COC(=O)[C@H](Cc1ccc([N+](=O)[O-])cc1)NC(=O)OC(C)(C)C")
"95 to 96 °C"
>>> test_value("COc1cc2c(cc1Br)c1ccccc1n2CCC(C)CCCC(C)C (stereo unspecified)")
"55 °C"
>>> test_value("CCCCc1cc2cc([N+](=O)[O-])ccc2n1C")
"77 °C"
>>> test_value("Cc1nc(NC(=O)c2cnn3c(C(F)(F)F)cc(-c4ccc(C(F)(F)F)cc4)nc23)sc1S(=O)(=O)N(CCO)CCO")
"214 °C"
>>> test_value("CCC1Cn2c(ncc(C(=O)O)c2=O)-c2ccccc21 (stereo unspecified)")
"167 to 169 °C"
>>> test_value("COC(=O)CCc1cc2cc(Cl)ccc2n1S(=O)(=O)c1ccc2nc(N)sc2c1")
"217 to 222 °C"

Query: What measured melting point goes with Oc1ccc(C2Oc3ccccc3C=C2c2ccc(OC3CCCCO3)cc2)cc1 (stereo unspecified) ?
Response: 110 °C

Query: Then this compound: "O=C(O)c1cc(-n2c(-c3ccccc3)cc3c2Cc2ccccc2-3)ccc1O"
Response: 201 to 205 °C

Query: Param item: "O=C(c1ccccc1)c1cc(-c2ccncc2)c(N2CCOCC2)s1"
Response: 122 °C

Query: Same for "Cc1ccc(C=Nc2ccc(Cl)cc2Cl)c(C)c1"
Response: 102 to 106 °C

Query: Now give it for "COC(=O)c1n[nH]c(=O)c2ccc(Cl)cc12" too.
Response: 222 to 223 °C

Query: What do we get for "CC1(C)CCC(C)(C)C2=C1CC(C(=O)Oc1ccc(C(=O)O)cc1)C2" ?
Response: 194 to 195 °C

Query: And the next one, "CC(=O)c1cc(N2CCOCC2)ccc1NC(=O)c1cccc(OCc2ccccc2)c1" ?
Response: 140 to 142 °C

Query: Can you check "COC(=O)Cc1c(C)nn(-c2ccccc2)c1C" next?
Response: 63 to 64 °C

Query: Then "CCN(O)Cc1nnc2n1-c1ccc(Cl)cc1C(c1ccccc1)=NC2" ?
Response: 154 to 157 °C

Query: Input "COc1cc(-c2nn(C)c(C(F)(F)F)c2Cl)c(F)cc1[N+](=O)[O-]"
Response: 115 to 116 °C

Query: Lookup "Fc1ccc(C(c2ccc(F)c(F)c2)c2ccc(F)c(F)c2)cc1F"
Response: 95 to 96 °C

====

Measure: melting point

Below are worked cases with known answers.
>>> test_value("O=[N+]([O-])c1ccnc(-c2cc(C(F)(F)F)ccc2F)c1")
"58.1 °C"
>>> test_value("COCCOC(=O)COc1cc(F)ccc1C(=O)NCc1cccc([N+](=O)[O-])c1")
"112 to 115 °C"
>>> test_value("Oc1cc(OCc2ccccn2)ccc1/C=C/c1cc(/C=C/c2ccc3cc[nH]c3c2)n[nH]1")
"202 to 204 °C"

Query: # input molecule: "C#CCN(CC#C)c1cc(OC)c(OC)c(OC)c1" ; wanted: its melting point
Response: 62 to 63 °C

Query: Moving on to "O=C(O)c1cc2ccccc2c(=O)s1"
Response: 260 to 262 °C

Query: Similarly, Nc1ccc2c(c1)CC(NS(=O)(=O)c1ccccc1)C2 (stereo unspecified) ?
Response: 105 to 107 °C

Query: Follow-up item: "CCOC(=O)c1c(N)[nH]c2cc(OC)c(OC)cc12"
Response: 164 to 166 °C

Query: CCOC(=O)C(=O)NC1N=C2C(=Cc3ccccc32)S1 (stereo unspecified) ?
Response: 226 to 228 °C

Query: Another molecule to check: "COc1cccc2c1nc(-c1c(F)cccc1F)n2Cc1c(F)cccc1F"
Response: 154 to 155 °C

Query: What do we get for "CCCCc1nc2c(C)c(Cl)cc(C(=O)O)c2n1Cc1ccc(C(=O)O)cc1" ?
Response: 293 to 294 °C

====

Quick reference for melting point among some molecules

Answered cases to consult:
>>> test_value("Cc1c(C2(N(C)C)CCC(c3cccc(F)c3)(N(C)C)CC2)[nH]c2ccccc12 (stereo not drawn)")
"126 to 132 °C"
>>> test_value("CCCc1cc(=O)oc2c(C=O)c(O)cc(O)c12")
"236 to 237 °C"
>>> test_value("CC(C)(C)Sc1c(CC(C)(C)C(=O)O)n(Cc2ccc(Cl)cc2)c2ccc(OCc3ccc4ccccc4n3)cc12")
"208 °C"
>>> test_value("COC(=O)c1c(C)[nH]c(-c2ncccn2)c1C(=O)OC")
"140 to 146 °C"

Query: Fill blank: measured melting point of the molecule CC(CO)C1CCC2=C3C=CC4C(C)(C)C(OC(=O)c5ccccc5)CCC4(C)C3CCC21C (stereo not drawn) is ____.
Response: 218 to 220 °C

Query: // query: COc1cc2c(cc1Cl)C(C)(C)C(CC=O)C2=O (racemic)
Response: 102 to 103 °C

Query: Try this molecule too: "CC[C@H](C)[C@@H](CO)NC(=O)C[C@H](O)[C@H](CC(C)C)NC(=O)[C@H](CC(C)C)NC(=O)[C@H](Cc1cccc2ccccc12)NC(=O)OCc1ccccc1"
Response: 206 to 212 °C

Query: What do you have for CCCc1c(OCC(O)COc2cccc([N+](=O)[O-])c2C#N)ccc(C(C)=O)c1O (stereo not drawn) ?
Response: 117 to 119 °C

Data provenance: a melting point compilation (Tetko et al.; mined from patent text by program, amines drawn as free bases though some values may be those of a salt)
